Tested on: MYC
Assay: 3' UTR reporter interaction score (median-centred robust z-score of log2 firefly/Renilla activity); higher = less repression of the 3' UTR reporter
Conditions: HEK293T; 48 h
MEASURED ENDPOINT: 3' UTR reporter interaction score
// response body must contain only the number

> print(dat)
            sequence.string                  measured.endpoint  reported.measurement
1      GUUGUGUCAGUUUAUCAAAC  3' UTR reporter interaction score                0.0323
2    CAAAAACCACAGUUUCUUUUGC  3' UTR reporter interaction score                0.0969
3    UUGGUCCCCUUCAACCAGCUGU  3' UTR reporter interaction score                 0.174
4    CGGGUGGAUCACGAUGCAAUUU  3' UTR reporter interaction score                 0.166
5  AACUGGCCCUCAAAGUCCCGCUUU  3' UTR reporter interaction score                 0.891
6   AAACUCUACUUGUCCUUCUGAGU  3' UTR reporter interaction score                -0.658
7     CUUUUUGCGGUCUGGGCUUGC  3' UTR reporter interaction score                 0.829
8    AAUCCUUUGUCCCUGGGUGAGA  3' UTR reporter interaction score                 0.916

Task: Output measured 3' UTR reporter interaction score for this item: ACUGGGGGCUUUCGGGCUCUGCGU
Result: -0.444

Task: Output measured 3' UTR reporter interaction score for this item: ACCAUCGACCGUUGAUUGUACC
Result: -0.128

Task: Output measured 3' UTR reporter interaction score for this item: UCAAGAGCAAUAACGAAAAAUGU
Result: -0.189

Measured values drawn from the supplement of paper PMC5844555 for this set.
